The reported measurements were obtained from a melting point compilation (Tetko et al.; mined from patent text by program, amines drawn as free bases though some values may be those of a salt).

observed-property: melting point

- molecule: "CNc1nc(-c2ccccc2)c(-c2nc(N)nc(Nc3cccc([N+](=O)[O-])c3)n2)s1"
  measured-value: "277 °C"

Look at this molecule and give its reported melting point. CN(C)C=CC(=O)c1ccc(OCC(O)CN2CCN(c3ccc(Cl)cc3)CC2)cc1 (centres undefined)
185 °C

Recorded melting point for CS(=O)(=O)N[C@@H](CCCCN)C(=O)NC[C@H](CC1(C(=O)N[C@@H](Cc2ccc(O)cc2)C(=O)O)CCCC1)C(=O)O , please?
237 to 238 °C

Field request: melting point | item: COC(=O)c1nc2cc(Cl)c(OC)c(Cl)c2c(O)c1C(=O)OC
210 to 211 °C

Returns the measured melting point for the input molecule. Input: COc1cc(Cc2cnc(N)nc2N)cc2c1OC(C)(C)C=C2c1cccs1
> 260 °C

Give the measured melting point of CCCn1c(COC)nc2c(N)nc3ccc(OCCN4CCCCC4)cc3c21 .
160 to 162 °C

====

observed-property: melting point

See these solved cases before continuing.
- compound: "COC(=O)CCCC#Cc1cc(Cl)ccc1NS(=O)(=O)c1ccc2c(c1)OCCN2C"
  measured-value: "131 to 133 °C"
- compound: "COCc1ccc(N2CCN(Cc3c[nH]c4ncccc34)CC2)cc1"
  measured-value: "162 to 163 °C"
- compound: "Cn1ccn(CO)c1=O"
  measured-value: "102 to 104 °C"
- compound: "COC(=O)c1c(-c2ccc(C)cc2)ccnc1O"
  measured-value: "222 to 224 °C"
- compound: "CC1c2cccc3c2N(CC3)c2ccccc2N1C(=O)CN(C)Cc1ccccc1 (stereo unspecified)"
  measured-value: "101 to 106 °C"
- compound: "CCn1c(=O)c2c(nc(/C=C/c3cc4c(cc3Br)OCO4)n2C)n(CC)c1=O"
  measured-value: "255 to 256 °C"
- compound: "CCOC(=O)C(=NOCC(C)C)c1csc(N)n1"
  measured-value: "122 to 124 °C"
- compound: "O=C(Nc1cc(C(F)(F)F)on1)C(Cl)(Cl)Cl"
  measured-value: "114 °C"

What does the record list as melting point for CC(=O)N(C)c1ccc(CO)cc1 ?
83.5 to 85.5 °C

Value lookup for melting point; key = CCCc1c(OCCCOc2ccc(Br)cc2)ccc2c1OC(CCC(=O)O)(CCC(=O)O)CC2=O
136 °C

Quick one: melting point of CC(=O)N[C@@H]1c2cc(C)ccc2OC(C)(C)[C@H]1O (relative stereo) ?
188 to 190 °C

====

Each item that follows carries a reported melting point.

- compound: "CC(C)C(=O)Oc1ccc2c(c1Cl)Sc1ccccc1N2"
  melting point: "155 °C"
- compound: "C/C(=C\\c1ccc(C(=O)O)cc1)c1ccc2c(c1)SCCS2"
  melting point: "236 to 237 °C"
- compound: "O=c1[nH]c(-c2ccccc2)c(-c2ccccc2S(=O)(=O)NCCCBr)o1"
  melting point: "232 to 235 °C"

Return reported melting point; argument: FC(F)=Cc1nn(-c2c(Cl)cc(C(F)(F)F)cc2Cl)cc1C1CC1(Br)Br (stereo not given)
71 to 73 °C

Recorded melting point of COC(=O)c1[nH]c2ccccc2c1Oc1ccccc1N , please.
183 to 184 °C

====

observed-property: melting point

- molecule: "NC(=O)N(O)[C@H]1CC[C@H](c2cccc(F)c2)C1 (relative stereo)"
  observed-property: "melting point"
  measured-value: "113 to 114 °C"
- molecule: "Cn1c(=O)on(-c2ccccc2)c1=O"
  observed-property: "melting point"
  measured-value: "98 to 99 °C"
- molecule: "CCOC(=O)C1=C(C)NC(C(OCC)OCC)=C(C(=O)OCC)C1c1cccc(O)c1 (stereo unspecified)"
  observed-property: "melting point"
  measured-value: "107 to 108 °C"
- molecule: "Nc1ccc(C(=O)N2Cc3ccccc3Cc3cc(Cl)ccc32)cc1"
  observed-property: "melting point"
  measured-value: "211 to 214 °C"
- molecule: "Cc1cc(CCCCCOc2ccc(C3=NCCO3)cc2CO)on1"
  observed-property: "melting point"
  measured-value: "140 to 141 °C"

Query (molecule): CNC(=O)C(CCCl)(c1ccccc1)c1ccccc1 ; field requested: melting point
150 to 152 °C

Quick one: melting point for CC(=Cc1ccc(OCCCN(C)C)cc1)C(=O)O ?
> 190 °C

Quick check: melting point of Cc1ccc(S(=O)(=O)n2c(-c3cn(C)c4ccc(C=O)cc34)cc3cccnc32)cc1 ?
188 to 189 °C

Returns the measured melting point for the input molecule. Input: CSc1c(C(=O)O)ccc(Br)c1Cl
128 to 130 °C

Requested read-out: melting point. Entry: Clc1ccc2nc3c4ccccc4c4ccccc4c3nc2c1
241 to 242 °C

melting point for Cc1c(C(=O)CC(C)(C)C)c2ccccc2n1CCCNS(C)(=O)=O ?
139 to 142 °C

====

Property: melting point; scope: individual compounds

- compound: "CC(C)C(=O)CNC(=O)c1ccc(F)cc1"
  melting point: "107 to 108 °C"
- compound: "CNC1C(O)CC2C3CCC4CC(=O)CCC4(C)C3CCC21C (stereo unspecified)"
  melting point: "167 to 174 °C"
- compound: "CC(=O)Nc1ccc2nc(CN3[C@H](C)CCC[C@@H]3C)ccc2c1"
  melting point: "120 to 122 °C"

Would you mind telling me what melting point value was observed for COc1ccc(NC(=NC#N)NC(NC(=O)c2cccc(Cl)c2)C(C)(Cl)Cl)cn1 (stereo unspecified) ?
189 to 190 °C

Any idea what melting point was measured for CCN1C(=O)Cc2cc3occc3cc21 ?
112 to 113 °C

Requested field: melting point. Item: Cc1cc(Cl)c2c(C#N)cn(-c3ccc(C(C)C)cc3Br)c2n1
123 °C

Find the recorded melting point belonging to O=C(O)C1CCC(c2ccccc2)n2c(=O)n(CCS)c(=O)n21 (stereo unspecified) and report it.
172 to 175 °C

Consider the compound COC(=O)c1ccc(NN2C(=O)C(C)=C(C)C2=O)cc1C(=O)Nc1nc(OC)nc(OC)n1 and give its measured melting point.
123 to 127 °C

====

Listed here: items and their measured melting point.

Some compounds with known melting point results, for comparison:
- compound: "COC(=O)c1ccc(N2CCCC2)c(NC(=O)C(CSC(C)=O)Cc2ccccc2)c1 (stereo not given)"
  measured-value: "72 to 75 °C"
- compound: "CC1C[C@@H]2[C@H](O1)[C@@H](NC(=O)OC(C)(C)C)CN2Cc1ccccc1 (relative stereo)"
  measured-value: "56 to 60 °C"
- compound: "CCCn1c(-c2ccccc2)nc2cc(CO)ccc21"
  measured-value: "113 °C"
- compound: "CCn1nc(-c2cnc(N)nc2-c2ccccc2)ccc1=O"
  measured-value: "255 to 256 °C"
- compound: "CCN1C(=O)C2CC(c3ccc(N)cc3)(C2)C1=O"
  measured-value: "159 to 162 °C"
- compound: "CN1CCN(c2ncnc3nc(-c4ccncc4)[nH]c23)CC1"
  measured-value: "333 to 335 °C"

Recorded melting point of COC(=O)CCCc1ccc(C(=O)C=Cc2ccccc2)cc1 , please.
43 to 44 °C

Give the measured melting point of CN(C)C(=O)CC1CN=C(c2cc3cccc(N(C)S(=O)(=O)c4cccs4)c3[nH]2)S1 (stereo not given) .
153 to 154 °C

Which value of melting point has been reported for COC(=O)c1ccc2[nH]cc(Cc3ccc(OCc4ccc5ccccc5n4)cc3)c2c1 in the records?
179 to 180 °C

What value of melting point has been reported for the following compound? CCCCOc1ccc(C(=O)Nc2ccc3cc(CN4CCN(C)CC4)cnc3c2C)c(F)c1
155 °C

====

melting point by entry:

Example compounds with recorded melting point:
- compound: "Cc1nc(NC(=O)Nc2ccc(Cl)cc2)sc1C(=O)NCc1ccccc1"
  melting point: "> 300 °C"
- compound: "O=C1NC(=S)NC(=O)C1=Cc1ccc([N+](=O)[O-])s1"
  melting point: "285 °C"
- compound: "O=C(Nc1cccc2c(=O)cc(C(=O)O)oc12)c1cc(Cl)c2c(c1)CC(CCCc1ccccc1)O2 (stereo not given)"
  melting point: "224 to 225 °C"
- compound: "CNCc1ccc2nc(NC(=O)c3ccc(C(C)(C)C)cc3)cn2c1"
  melting point: "204 to 205 °C"
- compound: "CCOC(=O)CCCC(=O)c1ccc(F)cc1"
  melting point: "46 to 47 °C"
- compound: "CC(=O)C=Cc1ccc(Cl)cc1Cl"
  melting point: "79 to 80 °C"

# query: melting point of entry O=C(O)CCc1cc2c(c(Br)c1Br)OCC2
224 to 226 °C

What value of measured melting point is listed for Cc1ccc(C(=O)c2ccc3[nH]cc(C4CCN(C)CC4)c3c2)cc1 ?
92 °C

Field request: melting point | item: COc1ccc(C2(O)CCN(C(=O)OCc3ccccc3)CC2)cc1
98 °C

For the compound CNC(=O)C(NC(=O)c1ccc(F)cc1C(F)(F)F)C(O)CO (stereo not given) , what melting point is on record?
163 °C
